# Test system: NCI-H2085
# Test Protocol: relative viability (nuclei count vs DMSO), 5 days (fraction); higher = more cells survive
# Particulars: first compound 0.08 µM
Field: relative viability. Provide a value for each of the compounds that follow.
The answer should be written as a number, with no unit following it.

Entry under review: O=c1cc(-c2cccc3c2Sc2ccccc2S3)oc(N2CCOCC2)c1 + Cc1cc(Nc2cc(N3CCN(C)CC3)nc(Sc3ccc(NC(=O)C4CC4)cc3)n2)n[nH]1 [Tozasertib] (partner 0.1 µM) . Reported relative viability?
0.778

What do you have for COc1nc(C)cnc1NS(=O)(=O)c1cccnc1-c1ccc(-c2nnco2)cc1 [Zibotentan] + C[C@@H](Oc1cc(-c2cnn(C3CCNCC3)c2)cnc1N)c1c(Cl)ccc(F)c1Cl [Crizotinib] (partner 1 µM) ?
1.03

What do you have for COc1nc(C)cnc1NS(=O)(=O)c1cccnc1-c1ccc(-c2nnco2)cc1 [Zibotentan] + N=C(N)NC(=N)NCCc1ccccc1 [Phenformin] (partner 250 µM) ?
0.73

----------
Field: relative viability. Provide a value for each of the molecules that follow.
# System: NCI-H23
# Test Protocol: relative viability (nuclei count vs DMSO), 5 days (fraction); higher = more cells survive
# Particulars: first compound 0.253 µM
The answer should be written as a number, with no unit following it.

Entry under review: COc1nc(C)cnc1NS(=O)(=O)c1cccnc1-c1ccc(-c2nnco2)cc1 [Zibotentan] + COc1cc2c(Oc3ccc(NC(=O)C4(C(=O)Nc5ccc(F)cc5)CC4)cc3F)ccnc2cc1OCCCN1CCOCC1 [Foretinib] (partner 0.25 µM) . Reported relative viability?
0.766

What do you have for O=c1cc(-c2cccc3c2Sc2ccccc2S3)oc(N2CCOCC2)c1 + Cc1nc(Nc2ncc(C(=O)Nc3c(C)cccc3Cl)s2)cc(N2CCN(CCO)CC2)n1 [Dasatinib] (partner 0.075 µM) ?
0.716

What do you have for O=c1cc(-c2cccc3c2Sc2ccccc2S3)oc(N2CCOCC2)c1 + O=C(CCCCCCC(=O)Nc1ccccc1)NO [Vorinostat] (partner 1 µM) ?
0.593

----------
# System: NCI-H1666
# Test Protocol: relative viability (nuclei count vs DMSO), 5 days (fraction); higher = more cells survive
# Particulars: first compound 1 µM
Entries whose relative viability is below 0.7 take Yes; entries at or above 0.7 take No.

Does CCN(CC)CCCCNc1ncc2cc(-c3cc(OC)cc(OC)c3)c(NC(=O)NC(C)(C)C)nc2n1 + Cc1nc(NC(=O)N2CCC[C@H]2C(N)=O)sc1-c1ccnc(C(C)(C)C(F)(F)F)c1 [Alpelisib] (partner 2 µM) have relative viability strictly under 0.7?
No

What do you have for O=c1cc(N2CCOCC2)oc2c(-c3cccc4c3sc3ccccc34)cccc12 + N=C(N)NC(=N)NCCc1ccccc1 [Phenformin] (partner 250 µM) ?
Yes

What do you have for CCN(CC)CCCCNc1ncc2cc(-c3cc(OC)cc(OC)c3)c(NC(=O)NC(C)(C)C)nc2n1 + COc1cccc2cc(-c3nc([C@H]4CC[C@H](C(=O)O)CC4)n4ncnc(N)c34)[nH]c12 [OSI-027] (partner 0.5 µM) ?
No

What do you have for O=c1cc(N2CCOCC2)oc2c(-c3cccc4c3sc3ccccc34)cccc12 + CC(C)C[C@H](NC(=O)[C@H](Cc1ccccc1)NC(=O)c1cnccn1)B(O)O [Bortezomib] (partner 0.002 µM) ?
No

What do you have for CCN(CC)CCCCNc1ncc2cc(-c3cc(OC)cc(OC)c3)c(NC(=O)NC(C)(C)C)nc2n1 + C[C@]1(O)C[C@@H](c2nc(-c3ccc4ccc(-c5ccccc5)nc4c3)c3c(N)nccn32)C1 [Linsitinib] (partner 1 µM) ?
No

What do you have for O=c1cc(N2CCOCC2)oc2c(-c3cccc4c3sc3ccccc34)cccc12 + C[C@]1(O)C[C@@H](c2nc(-c3ccc4ccc(-c5ccccc5)nc4c3)c3c(N)nccn32)C1 [Linsitinib] (partner 1 µM) ?
Yes

What do you have for CCN(CC)CCCCNc1ncc2cc(-c3cc(OC)cc(OC)c3)c(NC(=O)NC(C)(C)C)nc2n1 + CCNC(=O)c1noc(-c2cc(C(C)C)c(O)cc2O)c1-c1ccc(CN2CCOCC2)cc1 [Luminespib] (partner 0.01 µM) ?
No

What do you have for CCN(CC)CCCCNc1ncc2cc(-c3cc(OC)cc(OC)c3)c(NC(=O)NC(C)(C)C)nc2n1 + CC(C)C[C@H](NC(=O)[C@H](Cc1ccccc1)NC(=O)c1cnccn1)B(O)O [Bortezomib] (partner 0.002 µM) ?
No

What do you have for CCN(CC)CCCCNc1ncc2cc(-c3cc(OC)cc(OC)c3)c(NC(=O)NC(C)(C)C)nc2n1 + CC1(C)CCC(c2ccc(Cl)cc2)=C(CN2CCN(c3ccc(C(=O)NS(=O)(=O)c4ccc(N[C@H](CCN5CCOCC5)CSc5ccccc5)c(S(=O)(=O)C(F)(F)F)c4)cc3)CC2)C1 [Navitoclax] (partner 0.5 µM) ?
No
